Biological target: S. aureus PlsY (SaPlsY) (Staphylococcus aureus)
Sequence (P67164 whole entry): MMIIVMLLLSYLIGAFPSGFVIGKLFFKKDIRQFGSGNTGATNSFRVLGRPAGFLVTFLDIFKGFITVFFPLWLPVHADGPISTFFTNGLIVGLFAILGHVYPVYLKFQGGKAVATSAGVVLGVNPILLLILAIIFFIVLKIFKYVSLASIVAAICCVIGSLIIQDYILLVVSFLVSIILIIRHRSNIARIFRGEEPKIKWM
Assay: biochemical
Type: E. coli FB23281 (delta plsY) membranes
READOUT_LABEL: IC50

Item CCCCCCCCCCCCCCCC(=O)NS(=O)(=O)Oc1ccc(CCN)cc1 [compound 16] : provide IC50
> 100 µM
